# Study target: human recombinant dopamine D2 receptor (Homo sapiens (Human), UniProt P14416)
# Sequence (P14416 whole entry): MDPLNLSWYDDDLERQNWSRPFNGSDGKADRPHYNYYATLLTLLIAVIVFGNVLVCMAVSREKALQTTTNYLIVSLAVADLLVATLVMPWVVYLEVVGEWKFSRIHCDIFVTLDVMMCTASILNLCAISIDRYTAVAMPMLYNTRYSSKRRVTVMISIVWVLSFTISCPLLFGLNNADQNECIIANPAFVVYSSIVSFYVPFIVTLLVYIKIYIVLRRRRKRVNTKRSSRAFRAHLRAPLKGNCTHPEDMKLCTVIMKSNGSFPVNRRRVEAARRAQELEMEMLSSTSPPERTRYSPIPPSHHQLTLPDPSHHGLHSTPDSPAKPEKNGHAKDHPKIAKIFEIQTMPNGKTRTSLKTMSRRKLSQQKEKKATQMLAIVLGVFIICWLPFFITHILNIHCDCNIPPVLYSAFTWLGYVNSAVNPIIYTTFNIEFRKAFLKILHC
# Test description: Test of binding inhibition for the human dopamine D2 receptor ([3H]-Metylspiperone SPA binding)
# Conditions used: [3H]-Metylspiperone 1.2 nM, Jump-In HEK cell membranes, read-out: hD2_Ki
Value type: Ki (nM)
Give bare numbers, in nM.

[[record]]
compound = "CC(F)(F)COc1nc2c(s1)CCN(CC[C@H]1CC[C@H](NC(=O)c3cccc4ncccc34)CC1)C2 [Compound I-071]"
study_target = "human recombinant dopamine D2 receptor (Homo sapiens (Human), UniProt P14416)"
value_type = "Ki"
meas_value = 150

[[record]]
compound = "Cc1ncc(CC(=O)N[C@H]2CC[C@H](CCN3CCc4sc(OCC(F)(F)F)nc4C(C)C3)CC2)s1 (stereo partly shown) [III-110]"
study_target = "human recombinant dopamine D2 receptor (Homo sapiens (Human), UniProt P14416)"
value_type = "Ki"
meas_value = 610

[[record]]
compound = "Cc1ncccc1C(=O)N[C@H]1CC[C@H](CCN2CCc3sc(OCC(C)(F)F)nc3C2)CC1 [III-555]"
study_target = "human recombinant dopamine D2 receptor (Homo sapiens (Human), UniProt P14416)"
value_type = "Ki"
meas_value = 310


Now for a further compound.
Task: Would you mind telling me what Ki value was observed for Cc1ncc(OCC(=O)N[C@H]2CC[C@H](CCN3CCc4nc(OCC(F)(F)F)sc4CC3)OC2)cn1 [III-165] ?
Output: 670

====

# Study target: human recombinant dopamine D2 receptor (Homo sapiens (Human), UniProt P14416)
# Test description: Test of binding inhibition for the human dopamine D2 receptor ([3H]-Metylspiperone SPA binding)
# Conditions used: [3H]-Metylspiperone 1.2 nM, Jump-In HEK cell membranes, read-out: hD2_Ki
Provide the reported pKi of each item.
Numbers only, as −log10 of the molar value.

[[record]]
molecule = "CC(=O)N[C@H]1CC[C@H](CCN2CCc3nc(OCC(C)(F)F)sc3CC2)CC1"
study_target = "human recombinant dopamine D2 receptor (Homo sapiens (Human), UniProt P14416)"
meas_value = 6.64


// input: 5 molecules below; output: pKi for each
1. Cn1cc(OCC(=O)N[C@H]2CC[C@H](CCN3CCc4sc(OCC(C)(F)F)nc4C3)CC2)cn1
2. Cc1nnc(CC(=O)N[C@H]2CC[C@H](CCN3CCc4sc(CCC(F)(F)F)nc4C3)CC2)o1
3. O=C(CCC(F)(F)F)N[C@H]1CC[C@H](CCN2CCc3sc(N4CC(F)(F)C4)nc3C2)CC1
4. Cc1nc(CC(=O)N[C@H]2CC[C@H](CCN3CCc4ccc(OCC(F)(F)F)nc4CC3)OC2)no1
5. Cc1ncccc1C(=O)N[C@H]1CC[C@](F)(CCN2CCc3nc(OCC(F)(F)F)sc3CC2)CC1

Output:
1. 6.46
2. 5.96
3. 6.27
4. 5.96
5. 6.23

====

Provide the reported pKi of each item.
# Study target: human recombinant dopamine D3 receptor (Homo sapiens (Human), UniProt P35462)
# Sequence (P35462 whole entry): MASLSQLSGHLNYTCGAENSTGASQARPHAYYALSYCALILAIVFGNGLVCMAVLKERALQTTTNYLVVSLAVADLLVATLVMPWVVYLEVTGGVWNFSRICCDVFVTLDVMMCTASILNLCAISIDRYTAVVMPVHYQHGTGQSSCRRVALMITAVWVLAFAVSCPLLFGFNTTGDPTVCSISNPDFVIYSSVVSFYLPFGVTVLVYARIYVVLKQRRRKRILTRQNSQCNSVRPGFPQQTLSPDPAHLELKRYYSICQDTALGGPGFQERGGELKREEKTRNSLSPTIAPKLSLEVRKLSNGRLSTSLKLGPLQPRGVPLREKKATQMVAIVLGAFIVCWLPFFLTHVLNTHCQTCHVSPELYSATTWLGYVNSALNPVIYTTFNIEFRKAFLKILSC
# Test description: Test of binding inhibition for the human dopamine D3 receptor ([3H]-Metylspiperone SPA binding)
# Conditions used: [3H]-Metylspiperone 2 nM, Jump-In HEK cell membranes, read-out: hD3_Ki
One number for each entry, as −log10 of the molar value.

Completed entries (count: 3):
[[record]]
compound = "Cc1ncccc1C(=O)N[C@H]1CC[C@H](CCN2CCc3nc(OCC(F)F)sc3CC2)CC1"
value_type = "pKi"
meas_value = 8.92

[[record]]
compound = "O=C(N[C@H]1CC[C@H](CCN2CCc3sc(N4CC5CC5C4)nc3C2)CC1)c1cccc2ncccc12 (stereo partly shown)"
value_type = "pKi"
meas_value = 10.10

[[record]]
compound = "Cc1ncc(OCC(=O)N[C@H]2CC[C@H](CCN3CCc4nc(OCC(F)(F)F)sc4CC3)OC2)cn1"
value_type = "pKi"
meas_value = 9.09


Now for a further compound.
Task: Would you mind telling me what pKi value was observed for CCN1Cc2c(C(=O)N[C@H]3CC[C@H](CCN4CCc5sc(CCC(F)(F)F)nc5C4)CC3)cccc2C1=O ?
Output: 9.82

====

# Study target: human recombinant dopamine D3 receptor (Homo sapiens (Human))
# Test description: Test of binding inhibition for the human dopamine D3 receptor ([3H]-Metylspiperone SPA binding)
# Conditions used: [3H]-Metylspiperone 2 nM, Jump-In HEK cell membranes, read-out: hD3_Ki
Value type: pKi
One number for each entry, as −log10 of the molar value.

[[record]]
mol_smiles = "Cn1cc2c(C(=O)N[C@H]3CC[C@H](CCN4CCc5sc(OCC(C)(F)F)nc5C4)CC3)cccc2n1"
meas_value = 9.62

[[record]]
mol_smiles = "CN1Cc2c(C(=O)N[C@H]3CC[C@H](CCN4CCc5sc(CCC(F)(F)F)nc5C4)CC3)cccc2C1=O"
meas_value = 9.64

[[record]]
mol_smiles = "Cc1ncccc1C(=O)N[C@H]1CC[C@H](CCN2CCc3sc(OCC(F)(F)F)nc3C2)CC1"
meas_value = 9.36


Now for a further compound.
Task: Would you mind telling me what pKi value was observed for Cn1c(-c2ccccc2)nc2c1CCN(CC[C@H]1CC[C@H](NC(=O)c3cccc4ncccc34)CC1)C2 ?
Output: 8.85

====

# Study target: human recombinant dopamine D2 receptor (Homo sapiens (Human), UniProt P14416)
# Test description: Test of binding inhibition for the human dopamine D2 receptor ([3H]-Metylspiperone SPA binding)
# Conditions used: [3H]-Metylspiperone 1.2 nM, Jump-In HEK cell membranes, read-out: hD2_Ki
# Experimental: Cell membranes: Jump-In HEK cell membranes expressing human recombinant dopamine D2 receptor (2 μg/well) […] 225 nL of the solutions of the non-specific ligand or the compounds of the present invention at each concentration (in case of vehicle, final concentration 0.3% DMSO) were added in each well of a 384-well white/clear bottom microplate (3706, Corning). […] Non-specific binding was calculated based on the radioactivity of [^3H]-Metylspiperone in the presence of 10 μM non-labeled Butaclamol. […]
Value type: pKi
Answers are plain numbers, as −log10 of the molar value.

Completed entries (count: 3):
[[record]]
compound = "Cc1cc(OCC(=O)N[C@H]2CC[C@H](CCN3CCc4sc(N5CC(F)(F)C5)nc4C3)CC2)no1 [III-581]"
value_type = "pKi"
meas_value = 6.09

[[record]]
compound = "CN1Cc2c(C(=O)N[C@H]3CC[C@H](CCN4CCc5sc(CCC(F)(F)F)nc5C4)CC3)cccc2C1=O [III-697]"
value_type = "pKi"
meas_value = 6.66

[[record]]
compound = "Cn1cc(/C=C/C(=O)N[C@H]2CC[C@H](CCN3CCc4nc(OCC(F)(F)F)sc4CC3)OC2)cn1 [III-168]"
value_type = "pKi"
meas_value = 6.85


Task: What pKi appears in the records for this compound with human recombinant dopamine D2 receptor (Homo sapiens (Human), UniProt P14416)? Cc1nnc(CC(=O)N[C@H]2CC[C@](F)(CCN3CCc4nc(OCC(F)(F)F)sc4CC3)CC2)o1 [III-253]
Output: 6.21

====

# Study target: human recombinant dopamine D2 receptor (Homo sapiens (Human), UniProt P14416)
# Test description: Test of binding inhibition for the human dopamine D2 receptor ([3H]-Metylspiperone SPA binding)
# Conditions used: [3H]-Metylspiperone 1.2 nM, Jump-In HEK cell membranes, read-out: hD2_Ki
Returns: string. Value is T if measured Ki is below 300 nM, and F if it is greater than or equal to it.

[[record]]
molecule = "Cn1cc2c(C(=O)N[C@H]3CC[C@H](CCN4CCc5ccc(OC6CC(F)(F)C6)nc5CC4)CC3)cccc2n1"
study_target = "human recombinant dopamine D2 receptor (Homo sapiens (Human), UniProt P14416)"
class = "F"

[[record]]
molecule = "Cc1ncccc1C(=O)N[C@H]1CC[C@H](CCN2CCc3sc(OCC(F)(F)F)nc3C2)CC1"
study_target = "human recombinant dopamine D2 receptor (Homo sapiens (Human), UniProt P14416)"
class = "F"


Task: # TODO verify Ki < 300 nM strictly for this molecule: Cc1ncc(CC(=O)N[C@H]2CC[C@H](C(F)CN3CCc4ccc(OCC(F)(F)F)nc4CC3)CC2)s1 (stereo partly drawn)
Output: F

Task: # TODO verify Ki < 300 nM strictly for this molecule: Cc1cc2c(C(=O)N[C@H]3CC[C@H](CCN4CCc5ccc(OCC(F)(F)F)nc5CC4)OC3)cccn2n1
Output: F

Task: # TODO verify Ki < 300 nM strictly for this molecule: O=C(N[C@H]1CC[C@H](CCN2CC[C@H]3CN(c4ccccc4)C[C@@H]3C2)CC1)c1cccc2ncccc12 (racemic)
Output: T

Task: # TODO verify Ki < 300 nM strictly for this molecule: Cc1ncccc1C(=O)N[C@H]1CC[C@H](CCN2CCc3nc(OCC(F)F)sc3CC2)CC1
Output: F

Task: # TODO verify Ki < 300 nM strictly for this molecule: CN1Cc2c(C(=O)N[C@H]3CC[C@H](CCN4CCc5nc(OCC(F)(F)F)sc5CC4)CC3)cccc2C1=O
Output: T
